- System: U2OS
- methodSummary: Multiplex assay against U2OS
- Format: toxicity, cell-based
- experimentalConditions: human, 48 h, 1 µM, compound concentration 1 uM, replicate 2
Label rule, in plain words: Population Pyknosed Nuclei (%) of 9% and up is fulfilled, under 9% is not fulfilled.

compound	assignedClass
Cl.Cl.Nc1ncnc2c1c(-c1cccc(OCc3ccccc3)c1)cn2[C@H]1C[C@@H](CN2CCC2)C1	fulfilled
CC(=O)c1cc(-c2cc(C(=O)NC3CC3)ccc2C)c2ncccn12	not fulfilled
Nc1nc2c(c(N3CCNCC3)n1)CCC1=C2[C@@H]2CCCC[C@@H]2O1	fulfilled
CC(C)N1CCC(C)(C)c2cc(C#Cc3ccc(C(=O)O)cc3)ccc21	not fulfilled
COc1ccc(NS(=O)(=O)c2sc3ccc(Cl)cc3c2C)cc1N1CCNCC1.Cl	fulfilled
CCC(=O)O[C@]1(C(=O)SCF)[C@H](C)C[C@H]2[C@@H]3C[C@H](F)C4=CC(=O)C=C[C@]4(C)[C@@]3(F)[C@@H](O)C[C@@]21C [FLUTICASONE PROPIONATE]	not fulfilled
Nc1ccc(C(=O)Nc2cccc(-c3nc(N4CCOCC4)c4oc5ncccc5c4n3)c2)cn1	fulfilled
CCc1cc2c(cc1CC)CC(NC[C@H](O)c1ccc(O)c3[nH]c(=O)ccc13)C2	not fulfilled

----------
- System: U2OS
- methodSummary: Multiplex assay against U2OS
- Format: toxicity, cell-based
- experimentalConditions: human, 12 h, 1 µM, compound concentration 1 uM, replicate 2
measureName: Population Mitochondria Different-Phenotype (%)

compound	targetEntity	observedMeasurement
CC(C)(C)c1cnc(CSc2cnc(NC(=O)C3CCNCC3)s2)o1 [BMS-387032]	U2OS	31
CCn1c(-c2nonc2N)nc2cnc(Oc3cccc(NC(=O)c4ccc(OCCN5CCOCC5)cc4)c3)cc21 [GSK-269962A]	U2OS	16
COc1cc2c(Nc3ccc(NC(=O)c4ccccc4)cc3)ncnc2cc1OCCCN1CCOCC1	U2OS	14
CNC(=O)c1cc(Oc2ccc(NC(=O)Nc3cc(C(C)(C)C)nn3-c3ccc4ncccc4c3)c(F)c2)ccn1 [REBASTINIB]	U2OS	31
Cl.Cl.NC1(c2ccc(-c3nc4ccn5c(=O)[nH]nc5c4cc3-c3ccccc3)cc2)CCC1	U2OS	17
O=C(O)c1ccc2cc(-c3ccc(O)c(C45CC6CC(CC(C6)C4)C5)c3)ccc2c1 [O-DEMETHYLATED ADAPALENE]	U2OS	16
CNC(=O)c1nn(C)c2c1C(C)(C)Cc1cnc(Nc3ccc(N4CCN(C)CC4)cc3)nc1-2 [MILCICLIB]	U2OS	76
CNc1oc(-c2cccc3ccccc23)nc1C#N	U2OS	11
CC(C)N1CCC(C)(C)c2cc(C#Cc3ccc(C(=O)O)cc3)ccc21	U2OS	15
COc1cc2c(NC3CCN(C(C)C)CC3)nc(N3CCC(F)(F)CC3)nc2cc1OCCCN1CCCC1	U2OS	22
CN(C)CCOc1ccc(-c2nc(-c3ccncc3)c(-c3ccc4c(c3)CC/C4=N\O)[nH]2)cc1 [SB590885]	U2OS	28
Cc1cn(-c2cc(NC(=O)c3ccc4c(c3)CN(c3cncnc3)C[C@@H]4C)cc(C(F)(F)F)c2)cn1	U2OS	30
CCc1cc2c(cc1CC)CC(NC[C@H](O)c1ccc(O)c3[nH]c(=O)ccc13)C2 [INDACATEROL]	U2OS	11
Cc1nc(Cc2cccc(C(F)(F)F)c2)sc1-c1ccc(C(N)=O)nc1 [TP-024n]	U2OS	18
CCC(=O)O[C@]1(C(=O)SCF)[C@H](C)C[C@H]2[C@@H]3C[C@H](F)C4=CC(=O)C=C[C@]4(C)[C@@]3(F)[C@@H](O)C[C@@]21C [FLUTICASONE PROPIONATE]	U2OS	9
c1ccc2oc(-c3csc(C4CCN(Cc5nc6ncccc6[nH]5)CC4)n3)cc2c1	U2OS	27
Nc1nc2c(c(N3CCNCC3)n1)CCC1=C2[C@@H]2CCCC[C@@H]2O1	U2OS	27
